Reference for the values: ChEMBL document CHEMBL1143056

# testedSystem: Tyrosinase (Agaricus bisporus)
# Sequence (O42713 whole entry): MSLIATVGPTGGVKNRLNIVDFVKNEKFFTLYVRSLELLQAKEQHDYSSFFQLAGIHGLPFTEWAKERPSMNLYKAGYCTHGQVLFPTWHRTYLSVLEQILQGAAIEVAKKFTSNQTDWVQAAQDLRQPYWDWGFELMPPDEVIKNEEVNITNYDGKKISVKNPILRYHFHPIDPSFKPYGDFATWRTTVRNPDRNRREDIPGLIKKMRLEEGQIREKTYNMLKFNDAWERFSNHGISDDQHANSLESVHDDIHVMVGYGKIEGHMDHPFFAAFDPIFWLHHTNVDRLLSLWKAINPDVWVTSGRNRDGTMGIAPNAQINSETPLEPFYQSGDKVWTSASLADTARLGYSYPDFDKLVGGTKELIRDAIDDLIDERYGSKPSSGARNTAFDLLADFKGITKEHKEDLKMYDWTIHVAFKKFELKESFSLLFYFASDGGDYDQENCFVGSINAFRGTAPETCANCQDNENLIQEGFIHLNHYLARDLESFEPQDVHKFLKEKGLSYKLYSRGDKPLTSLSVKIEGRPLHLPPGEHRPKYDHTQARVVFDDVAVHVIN
measuredMetric: pIC50
FYI, pIC50 means -log10 of a concentration in mol per litre.

Request: Returns the measured pIC50 for the input compound. Input: CCC(C)(C)C(OC(=O)CCc1ccc(O)cc1O)C(C)(C)CC
Response: 6.82
